- assay target: PI3Kδ (Homo sapiens, UniProt O00329)
- Construct: purchased Millipore Ltd (Billerica, Mass.)
- Sequence (O00329 whole entry, one chain of several): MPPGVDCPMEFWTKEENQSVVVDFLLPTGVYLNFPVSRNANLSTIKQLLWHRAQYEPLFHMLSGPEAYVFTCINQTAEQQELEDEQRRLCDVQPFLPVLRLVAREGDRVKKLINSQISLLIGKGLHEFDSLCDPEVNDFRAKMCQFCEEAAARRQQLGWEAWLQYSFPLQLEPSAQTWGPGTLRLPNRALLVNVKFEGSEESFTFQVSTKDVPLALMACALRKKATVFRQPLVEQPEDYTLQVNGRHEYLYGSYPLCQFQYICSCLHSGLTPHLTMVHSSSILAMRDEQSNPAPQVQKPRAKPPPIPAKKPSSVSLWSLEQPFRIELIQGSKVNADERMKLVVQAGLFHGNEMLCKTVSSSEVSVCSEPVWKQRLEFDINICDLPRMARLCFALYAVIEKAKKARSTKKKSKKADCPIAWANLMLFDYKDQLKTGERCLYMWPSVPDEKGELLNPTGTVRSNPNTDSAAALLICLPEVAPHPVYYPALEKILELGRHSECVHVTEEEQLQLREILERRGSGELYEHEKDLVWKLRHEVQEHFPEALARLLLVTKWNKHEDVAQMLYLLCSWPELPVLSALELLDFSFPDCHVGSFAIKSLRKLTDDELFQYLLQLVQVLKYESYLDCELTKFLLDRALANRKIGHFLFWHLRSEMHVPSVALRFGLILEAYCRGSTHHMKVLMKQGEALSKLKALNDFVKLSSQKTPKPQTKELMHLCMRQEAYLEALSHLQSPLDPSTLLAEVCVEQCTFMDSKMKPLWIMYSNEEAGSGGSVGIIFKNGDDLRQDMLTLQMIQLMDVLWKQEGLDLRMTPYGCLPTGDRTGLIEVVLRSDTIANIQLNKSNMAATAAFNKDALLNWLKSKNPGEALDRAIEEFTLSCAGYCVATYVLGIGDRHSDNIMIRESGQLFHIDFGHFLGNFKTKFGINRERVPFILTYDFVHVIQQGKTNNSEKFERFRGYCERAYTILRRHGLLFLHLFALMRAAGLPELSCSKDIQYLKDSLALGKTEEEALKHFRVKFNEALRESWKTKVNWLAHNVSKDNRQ
- assay explanation: In vitro determination of the PI3K enzyme inhibitory activity in the cell free assay (ADP-Glo Kinase Assay), PI3Kδ
- Type: biochemical
- measurement conditions: ATP 80 μM, read-out: PI3K delta inhibition
pIC50: −log10 of the molar value.
reported property: pIC50

Field: example entries. Status: answers known.
[
  {
    "molecule": "CC(c1cc2ccccn2c1-c1csc(CN2CCOCC2)n1)n1nc(-c2cc(O)cc(F)c2)c2c(N)ncnc21 (centres unmarked) [Example 130]",
    "assay target": "PI3Kδ (Homo sapiens, UniProt O00329)",
    "pIC50": "> 8.00"
  },
  {
    "molecule": "N#Cc1c(N)ncnc1NCc1cn2ccccc2c1-c1ccccn1 [Example 30]",
    "assay target": "PI3Kδ (Homo sapiens, UniProt O00329)",
    "pIC50": "6.00 to 8.00"
  }
]

Case CC(c1cc2ccccn2c1-c1ccc(CN2CCOCC2)cc1)n1nc(-c2cc(O)cc(F)c2)c2c(N)ncnc21 (centres unmarked) [Example 91] , PI3Kδ (Homo sapiens, UniProt O00329), pIC50 recorded as 6.00 to 8.00

Case CC(c1cc2ccccn2c1-c1cc(CN2CCN(C)CC2)ccn1)n1nc(-c2cc(O)cc(F)c2)c2c(N)ncnc21 (centres unmarked) [Example 116] , PI3Kδ (Homo sapiens, UniProt O00329), pIC50 recorded as > 8.00

Case CC(c1cc2ccccn2c1-c1ccn(CCN2CCOCC2)n1)n1nc(-c2cc(O)cc(F)c2)c2c(N)ncnc21 (centres unmarked) [Example 150] , PI3Kδ (Homo sapiens, UniProt O00329), pIC50 recorded as > 8.00

Case Cc1ccccc1-c1c(Cn2cnc3c(N)ncnc32)cc2ccccn12 [Example 7] , PI3Kδ (Homo sapiens, UniProt O00329), pIC50 recorded as < 6.00

Case CC(c1cc2ccccn2c1-c1ccccn1)n1nc(-c2cncc(O)c2)c2c(N)ncnc21 (centres unmarked) [Example 69] , PI3Kδ (Homo sapiens, UniProt O00329), pIC50 recorded as > 8.00

Case Cc1ccn2c(-c3ccccn3)c(C(C)n3nc(-c4cc(O)cc(F)c4)c4c(N)ncnc43)cc2c1 (centres unmarked) [Example 105] , PI3Kδ (Homo sapiens, UniProt O00329), pIC50 recorded as 6.00 to 8.00

###

- assay target: PI3Kβ (Homo sapiens, UniProt P42338)
- Sequence (P42338 whole entry): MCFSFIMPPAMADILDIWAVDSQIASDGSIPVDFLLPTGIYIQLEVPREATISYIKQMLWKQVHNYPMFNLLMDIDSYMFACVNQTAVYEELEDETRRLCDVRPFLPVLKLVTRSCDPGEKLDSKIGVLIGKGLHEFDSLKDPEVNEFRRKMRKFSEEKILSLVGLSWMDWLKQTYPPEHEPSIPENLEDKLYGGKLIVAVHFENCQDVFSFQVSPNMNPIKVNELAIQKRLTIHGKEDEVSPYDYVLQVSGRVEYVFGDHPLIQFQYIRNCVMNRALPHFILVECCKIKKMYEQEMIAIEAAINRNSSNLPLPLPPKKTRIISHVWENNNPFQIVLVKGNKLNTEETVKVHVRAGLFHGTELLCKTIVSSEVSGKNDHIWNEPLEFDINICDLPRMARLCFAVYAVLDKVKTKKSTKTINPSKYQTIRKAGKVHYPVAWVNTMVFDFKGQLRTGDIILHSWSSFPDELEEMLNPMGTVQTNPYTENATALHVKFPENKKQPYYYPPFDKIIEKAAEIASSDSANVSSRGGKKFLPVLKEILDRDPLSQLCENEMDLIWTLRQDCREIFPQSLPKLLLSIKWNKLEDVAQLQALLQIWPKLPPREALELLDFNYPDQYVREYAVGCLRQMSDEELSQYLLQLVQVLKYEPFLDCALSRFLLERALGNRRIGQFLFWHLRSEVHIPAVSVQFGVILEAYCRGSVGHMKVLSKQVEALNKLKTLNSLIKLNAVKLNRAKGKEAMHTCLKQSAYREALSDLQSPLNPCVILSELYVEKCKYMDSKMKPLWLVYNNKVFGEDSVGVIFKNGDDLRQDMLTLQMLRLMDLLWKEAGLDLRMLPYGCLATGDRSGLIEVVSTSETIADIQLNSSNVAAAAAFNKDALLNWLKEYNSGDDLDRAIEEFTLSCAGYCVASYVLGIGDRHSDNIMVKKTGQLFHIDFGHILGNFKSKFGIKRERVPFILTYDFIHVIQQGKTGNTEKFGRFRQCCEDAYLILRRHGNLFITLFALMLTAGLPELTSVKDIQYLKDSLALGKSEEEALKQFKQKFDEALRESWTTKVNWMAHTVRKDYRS
- Sequence (P27986 whole entry partner): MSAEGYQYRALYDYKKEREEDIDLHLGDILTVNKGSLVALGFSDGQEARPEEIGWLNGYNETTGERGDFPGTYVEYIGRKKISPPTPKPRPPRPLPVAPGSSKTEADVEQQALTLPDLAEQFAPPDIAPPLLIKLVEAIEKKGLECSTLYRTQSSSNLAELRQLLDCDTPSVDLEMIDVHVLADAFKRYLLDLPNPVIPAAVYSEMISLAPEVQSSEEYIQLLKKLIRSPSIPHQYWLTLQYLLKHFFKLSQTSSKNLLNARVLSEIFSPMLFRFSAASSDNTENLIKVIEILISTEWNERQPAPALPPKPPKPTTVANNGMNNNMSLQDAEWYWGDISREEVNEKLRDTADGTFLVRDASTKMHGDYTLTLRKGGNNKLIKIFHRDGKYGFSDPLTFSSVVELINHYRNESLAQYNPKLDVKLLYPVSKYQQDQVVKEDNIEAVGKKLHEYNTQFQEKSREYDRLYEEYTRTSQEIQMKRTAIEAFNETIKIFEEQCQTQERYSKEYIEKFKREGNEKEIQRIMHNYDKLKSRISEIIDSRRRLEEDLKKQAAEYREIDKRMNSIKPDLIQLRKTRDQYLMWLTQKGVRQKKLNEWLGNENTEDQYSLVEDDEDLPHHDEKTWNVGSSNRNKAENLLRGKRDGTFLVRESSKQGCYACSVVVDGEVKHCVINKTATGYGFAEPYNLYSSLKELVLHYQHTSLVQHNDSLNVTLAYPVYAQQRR
- assay explanation: In vitro determination of the PI3K enzyme inhibitory activity in the cell free assay (ADP-Glo Kinase Assay), PI3Kβ
- measurement conditions: ATP 100 μM, read-out: PI3K beta inhibition
pIC50: −log10 of the molar value.
Listed below: pIC50 values for each entry.

Field: example entries. Status: answers known.
[
  {
    "compound": "CC(c1cc2ccccn2c1-c1ccc(CN(C)C)cc1)n1nc(-c2cc(O)cc(F)c2)c2c(N)ncnc21 (stereo not drawn)",
    "assay target": "PI3Kβ (Homo sapiens, UniProt P42338)",
    "result": "6.00 to 8.00"
  },
  {
    "compound": "C[C@@H](c1cc2ccccn2c1-c1ccncc1)n1nc(-c2cc(O)cc(F)c2)c2c(N)ncnc21 (single isomer, unassigned) [Example 84]",
    "assay target": "PI3Kβ (Homo sapiens, UniProt P42338)",
    "result": "< 6.00"
  }
]

Reported pIC50 of CC(c1cc2ccccn2c1-c1ccccn1)n1nc(-c2ccc(F)c(O)c2)c2c(N)ncnc21 (stereo not drawn) : < 6.00

###

- assay target: UniProtKB P42336
- assay explanation: In vitro determination of the PI3K enzyme inhibitory activity in the cell free assay (ADP-Glo Kinase Assay), PI3Kα
- measurement conditions: ATP 50 μM, read-out: PI3K alpha inhibition
pIC50: −log10 of the molar value.
Listed below: pIC50 values for each entry.

Field: example entries. Status: answers known.
[
  {
    "compound": "CC(c1cc2ccccn2c1-c1ccc(OC2CCN(C)CC2)nn1)n1nc(-c2cc(O)cc(F)c2)c2c(N)ncnc21 (stereo not shown)",
    "result": "< 6.00"
  },
  {
    "compound": "CC(Nc1ncnc(N)c1C#CCO)c1cc2ccccn2c1-c1ccccn1 (stereo not shown)",
    "result": "< 6.00"
  },
  {
    "compound": "CC(c1cc2ccccn2c1C1=CCNCC1)n1nc(-c2cc(O)cc(F)c2)c2c(N)ncnc21 (stereo not shown)",
    "result": "< 6.00"
  },
  {
    "compound": "CC(c1cc2ccccn2c1-c1ccccn1)n1nc(-c2cc(N)cc(F)c2)c2c(N)ncnc21 (stereo not shown)",
    "result": "< 6.00"
  },
  {
    "compound": "CC(c1cc2ccccn2c1-c1cc(CN(C)C)ccn1)n1nc(-c2cc(O)cc(F)c2)c2c(N)ncnc21 (stereo not shown)",
    "result": "6.00 to 8.00"
  }
]

Case CC(Nc1ncnc(N)c1Br)c1cc2ccccn2c1-c1ccccn1 (stereo not shown) , UniProtKB P42336, pIC50 recorded as < 6.00

Case CC(c1cc2ccccn2c1N1CCCC1=O)n1nc(-c2cc(O)cc(F)c2)c2c(N)ncnc21 (stereo not shown) , UniProtKB P42336, pIC50 recorded as 6.00 to 8.00

###

- assay target: PI3Kα (Homo sapiens, UniProt P42336)
- Sequence (P42336 whole entry): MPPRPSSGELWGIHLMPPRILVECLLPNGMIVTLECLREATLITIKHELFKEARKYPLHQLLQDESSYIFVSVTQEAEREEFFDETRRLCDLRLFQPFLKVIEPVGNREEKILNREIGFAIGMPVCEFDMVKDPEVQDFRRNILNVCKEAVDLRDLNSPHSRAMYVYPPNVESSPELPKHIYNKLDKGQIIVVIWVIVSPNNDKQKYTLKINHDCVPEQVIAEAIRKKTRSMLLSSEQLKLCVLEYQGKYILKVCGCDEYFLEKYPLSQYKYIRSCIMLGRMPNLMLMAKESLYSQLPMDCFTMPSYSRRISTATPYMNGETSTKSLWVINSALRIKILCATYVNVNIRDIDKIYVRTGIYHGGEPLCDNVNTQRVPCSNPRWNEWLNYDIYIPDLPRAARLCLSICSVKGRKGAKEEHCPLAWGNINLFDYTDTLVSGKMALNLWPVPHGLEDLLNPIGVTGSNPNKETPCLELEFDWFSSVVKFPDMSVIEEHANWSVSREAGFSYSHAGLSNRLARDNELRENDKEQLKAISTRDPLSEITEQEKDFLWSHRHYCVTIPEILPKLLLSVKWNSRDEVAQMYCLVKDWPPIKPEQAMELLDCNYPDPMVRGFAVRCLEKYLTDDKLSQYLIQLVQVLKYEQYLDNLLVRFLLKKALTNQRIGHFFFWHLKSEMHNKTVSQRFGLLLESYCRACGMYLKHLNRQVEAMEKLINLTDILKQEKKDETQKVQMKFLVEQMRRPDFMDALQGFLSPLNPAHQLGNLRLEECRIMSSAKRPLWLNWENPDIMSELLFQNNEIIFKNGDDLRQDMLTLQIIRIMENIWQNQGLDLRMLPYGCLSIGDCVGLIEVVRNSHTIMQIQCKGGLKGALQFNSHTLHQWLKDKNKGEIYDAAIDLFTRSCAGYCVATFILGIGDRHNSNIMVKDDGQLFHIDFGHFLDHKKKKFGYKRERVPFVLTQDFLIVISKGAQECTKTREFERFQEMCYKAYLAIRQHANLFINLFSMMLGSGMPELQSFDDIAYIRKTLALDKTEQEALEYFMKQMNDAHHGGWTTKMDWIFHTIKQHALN
- Sequence (P27986 whole entry partner): as the sequence (P27986 whole entry partner) above
- assay explanation: In vitro determination of the PI3K enzyme inhibitory activity in the cell free assay (ADP-Glo Kinase Assay), PI3Kα
- measurement conditions: ATP 50 μM, read-out: PI3K alpha inhibition
reported property: IC50

Field: example entries. Status: answers known.
[
  {
    "compound": "CC(c1cc2ccccn2c1CN1CCC2(CCCN(C)C2)CC1)n1nc(-c2cc(O)cc(F)c2)c2c(N)ncnc21 (centres unmarked)",
    "assay target": "PI3Kα (Homo sapiens, UniProt P42336)",
    "IC50": "> 1000 nM"
  },
  {
    "compound": "CC(Nc1ncnc(N)c1C#N)c1cc2ccccn2c1-c1ccsc1 (centres unmarked)",
    "assay target": "PI3Kα (Homo sapiens, UniProt P42336)",
    "IC50": "> 1000 nM"
  },
  {
    "compound": "CC(c1cc2ccccn2c1-c1ccccn1)n1nc(-c2cccc(F)c2)c2c(N)ncnc21 (centres unmarked)",
    "assay target": "PI3Kα (Homo sapiens, UniProt P42336)",
    "IC50": "> 1000 nM"
  },
  {
    "compound": "C[C@H](c1c(C#N)c2ccccn2c1-c1cccc(CN(C)C)c1)n1nc(-c2cc(O)cc(F)c2)c2c(N)ncnc21 (single isomer, unassigned) [Example 127a]",
    "assay target": "PI3Kα (Homo sapiens, UniProt P42336)",
    "IC50": "10 to 1000 nM"
  },
  {
    "compound": "Cc1ccc2cc(C(C)n3nc(-c4cc(O)cc(F)c4)c4c(N)ncnc43)c(-c3ccccn3)n2c1 (centres unmarked)",
    "assay target": "PI3Kα (Homo sapiens, UniProt P42336)",
    "IC50": "> 1000 nM"
  },
  {
    "compound": "CC(c1cc2ccccn2c1-c1ccccn1)n1nc(-c2cc(O)cc(Cl)c2)c2c(N)ncnc21 (centres unmarked)",
    "assay target": "PI3Kα (Homo sapiens, UniProt P42336)",
    "IC50": "> 1000 nM"
  },
  {
    "compound": "C[C@H](c1cc2ccccn2c1-c1ccc(CN2CCN(C)CC2)cn1)n1nc(-c2cc(O)cc(F)c2)c2c(N)ncnc21 (single isomer, unassigned) [Example 114b]",
    "assay target": "PI3Kα (Homo sapiens, UniProt P42336)",
    "IC50": "10 to 1000 nM"
  }
]

--- query ---
Reported IC50 of CC(c1cc2cccnn2c1-c1cccc(CN(C)C)c1)n1nc(-c2cc(O)cc(F)c2)c2c(N)ncnc21 (centres unmarked) : > 1000 nM

###

- assay target: PI3Kδ (Homo sapiens)
- assay explanation: In vitro determination of the PI3K enzyme inhibitory activity in the cell free assay (ADP-Glo Kinase Assay), PI3Kδ
- measurement conditions: ATP 80 μM, read-out: PI3K delta inhibition
Listed below: IC50 values for each entry.

Field: example entries. Status: answers known.
[
  {
    "molecule": "CC(c1cc2ccccn2c1-c1ccccn1)n1nc(-c2ccc(F)c(O)c2)c2c(N)ncnc21 (stereo not shown)",
    "reported property": "IC50",
    "result": "10 to 1000 nM"
  },
  {
    "molecule": "CC(Nc1ncnc(N)c1C=O)c1cc2ccccn2c1-c1ccccn1 (stereo not shown)",
    "reported property": "IC50",
    "result": "10 to 1000 nM"
  },
  {
    "molecule": "CC(c1cc2ccccn2c1N1CCN(C)CC1=O)n1nc(-c2cc(O)cc(F)c2)c2c(N)ncnc21 (stereo not shown)",
    "reported property": "IC50",
    "result": "< 10 nM"
  },
  {
    "molecule": "CC(NC(=O)c1nccnc1N)c1cc2ccccn2c1-c1ccccn1 (stereo not shown)",
    "reported property": "IC50",
    "result": "> 1000 nM"
  },
  {
    "molecule": "CC(Nc1ncnc(N)c1C(F)(F)F)c1cc2ccccn2c1-c1ccccn1 (stereo not shown)",
    "reported property": "IC50",
    "result": "10 to 1000 nM"
  },
  {
    "molecule": "C[C@H](c1cc2ccccn2c1-c1ccn(CCN2CCOCC2)c(=O)c1)n1nc(-c2cc(O)cc(F)c2)c2c(N)ncnc21 (single isomer, unassigned) [Example 121a]",
    "reported property": "IC50",
    "result": "10 to 1000 nM"
  }
]

--- query ---
Reported IC50 of CC(c1cc2ccccn2c1-c1ccccn1)n1nc(-c2cc(O)cc(C(F)(F)F)c2)c2c(N)ncnc21 (stereo not shown) : < 10 nM

Entry source: patent US9527869B2
